B1: PhoQ; a variant is named by its letters at X, in order, P23837 (parent)
chain: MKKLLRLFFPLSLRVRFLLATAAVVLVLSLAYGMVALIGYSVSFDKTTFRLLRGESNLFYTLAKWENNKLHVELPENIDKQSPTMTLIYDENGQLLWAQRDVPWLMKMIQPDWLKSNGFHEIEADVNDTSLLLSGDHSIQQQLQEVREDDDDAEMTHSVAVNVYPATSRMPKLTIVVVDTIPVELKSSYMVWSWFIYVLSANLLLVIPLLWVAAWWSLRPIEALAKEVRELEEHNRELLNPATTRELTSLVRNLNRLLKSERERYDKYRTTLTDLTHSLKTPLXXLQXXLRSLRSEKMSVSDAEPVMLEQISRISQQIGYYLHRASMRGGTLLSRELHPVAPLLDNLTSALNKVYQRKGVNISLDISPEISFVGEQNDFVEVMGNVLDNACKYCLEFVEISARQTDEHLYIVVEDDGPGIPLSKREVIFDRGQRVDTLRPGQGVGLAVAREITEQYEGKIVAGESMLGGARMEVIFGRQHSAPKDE

variants of: B1; test: enrichment ratio after two sorts for PhoP signalling (ratio (wild type AVST 3.29)); higher = more functional; details: with PhoP (E. coli)
In all, about 140,000 sequences were measured (“enrichment ratio after two sorts for PhoP signalling”: median about 0, highest 2% from about 11 on). For the sample, the highest values were picked, then their nearest neighbours and some sequences at random.
Recorded enrichment ratio, one value per entry.
Result type: enrichment ratio

>>> measured_value("NAHL")
"≤ 0.25"
>>> measured_value("TCGL")
13.5
>>> measured_value("VEGI")
"≤ 0.25"
>>> measured_value("WPCT")
"≤ 0.25"
>>> measured_value("ASCM")
11.6
>>> measured_value("TTHF")
11.8
>>> measured_value("TTPA")
"≤ 0.25"
>>> measured_value("TCNL")
4.28
>>> measured_value("SPNM")
"≤ 0.25"
>>> measured_value("VRDD")
"≤ 0.25"
>>> measured_value("YPGN")
"≤ 0.25"
>>> measured_value("QGHL")
18.3
>>> measured_value("KSIN")
"≤ 0.25"
>>> measured_value("THTF")
0.991
>>> measured_value("QVHF")
0.315
>>> measured_value("APAS")
"≤ 0.25"
>>> measured_value("YWTM")
"≤ 0.25"
>>> measured_value("TCIL")
"≤ 0.25"
>>> measured_value("TAHL")
17.4
>>> measured_value("TCGI")
25
>>> measured_value("KSHL")
"≤ 0.25"
>>> measured_value("TARQ")
"≤ 0.25"
>>> measured_value("THHL")
2.02
>>> measured_value("TSIA")
2.99
>>> measured_value("LESL")
"≤ 0.25"
>>> measured_value("TTYI")
6.16
>>> measured_value("QHPH")
"≤ 0.25"
>>> measured_value("FVNM")
"≤ 0.25"
>>> measured_value("VWNG")
"≤ 0.25"
>>> measured_value("VCSG")
0.44
>>> measured_value("VRCM")
"≤ 0.25"
>>> measured_value("LVNK")
"≤ 0.25"
>>> measured_value("KCSG")
"≤ 0.25"
>>> measured_value("EVSV")
"≤ 0.25"
>>> measured_value("KSTM")
"≤ 0.25"
>>> measured_value("WPAL")
"≤ 0.25"
>>> measured_value("GFED")
"≤ 0.25"
>>> measured_value("YPRG")
"≤ 0.25"
>>> measured_value("SCAA")
5.68
>>> measured_value("QTHL")
4.03
>>> measured_value("KSIA")
"≤ 0.25"
>>> measured_value("IKGI")
"≤ 0.25"
>>> measured_value("QSHL")
13.5
>>> measured_value("QVPD")
"≤ 0.25"
>>> measured_value("AGTM")
16.2
>>> measured_value("TCSI")
23.8
